molecular target: ATG9A peptide/HLA-A*02:01 complex (recombinant) (human); assay: SPR
quantityName: binding result

Request: binding result for AS170036 VL1VH1-VLH98T (scFv) scFv: QSALTQPRSVSGSPGQSVTISCAGTSSDVGSENYVSWYQQHPGKAPKLMIYQVNKRASGVPDRFSGSKSGNTASLTISGLQAEDEADYYCASYRSSDTNIVFGGGTKLTVLGGGGSGGGGSGGGGSEVQLVESGGGLVQPGGSLRLSCAASGFTFSSYAMSWVRQAPGKGLEWVSTINSGTGSPYYADSVKGRFTISRDNSKNTLYLQMNSLRAEDTAVYYCAKNFFDGSWFLGPPAMDYWGQGTLVTVSSHHHHHH ?
Result: no binding

Request: binding result for AS170036 VL1VH1-VLH98V (scFv) scFv: QSALTQPRSVSGSPGQSVTISCAGTSSDVGSENYVSWYQQHPGKAPKLMIYQVNKRASGVPDRFSGSKSGNTASLTISGLQAEDEADYYCASYRSSDVNIVFGGGTKLTVLGGGGSGGGGSGGGGSEVQLVESGGGLVQPGGSLRLSCAASGFTFSSYAMSWVRQAPGKGLEWVSTINSGTGSPYYADSVKGRFTISRDNSKNTLYLQMNSLRAEDTAVYYCAKNFFDGSWFLGPPAMDYWGQGTLVTVSSHHHHHH ?
Result: no binding
